Value source: paper PMC4038554

For each record, write down the corresponding relative binding ratio (IC50 of the test peptide divided by IC50 of the reference peptide).
System: DRB5
test-details: HLA class II peptide-binding assay (competitive ELISA)
Set-up: species or system human
condition-summary: DRB5; competitive ELISA, immunopurified HLA; reference peptide IC50 7 nM; ratio ≤20 high affinity, 20–200 moderate affinity
I'd appreciate a reply containing only the number, no unit.

Name the recorded relative binding ratio (IC50 of the test peptide divided by IC50 of the reference peptide) for ALEDFEKAAGARGLST [pTL8, Tear lipocalin peptide p126–141] . 22

// next record GQRVVFIQPSPVRDHY [pC5, Can f 1 peptide p81–96] 3

// next record LEAKITMLTNGQCQNIT [pC3, Can f 1 peptide p48–64] 339

// next record HYILYCEGELHGRQIR [pC6, Can f 1 peptide p95–110] 50

// next record ALEDFREFSRAKGLNQ [pC8, Can f 1 peptide p125–140] 101

// next record GKHVAYIIRSHVKDHY [pTL5, Tear lipocalin peptide p82–97] 1

// next record KPDSVTPMILKAQKGGNL [pC2, Can f 1 peptide p31–48] 144

// next record MNLESVTPMTLTTLEGGNL [pTL2, Tear lipocalin peptide p31–49] 645

// next record RQIRMAKLLGRDPEQSQ [pC7, Can f 1 peptide p107–123] 1

// next record PGKYTADGGKHVAYII [pTL4, Tear lipocalin peptide p74–89] 433

// next record GKWYLKAMTADQEVPE [pC1, Can f 1 peptide p15–30] 72

// next record GTWYLKAMTVDREFPE [pTL1, Tear lipocalin peptide p15–30] 2

// next record HYIFYCEGELHGKPVR [pTL6, Tear lipocalin peptide p96–111] 16

// next record PGKYTAYEGQRVVFIQ [pC4, Can f 1 peptide p73–88] 14

// next record LEAKVTMLISGRCQEVK [pTL3, Tear lipocalin peptide p49–65] 4

----------
assay-system: DRB1*1101 (Homo sapiens, UniProt P01903+P01911, A100R/A169T/A87E/I96F/K41T/L162R/M171V/P40S/Q125H/Q178H/Q39Y/Q99D/R42S/S66Y/T262R/V115G/W38E)
test-details: HLA class II peptide-binding assay (competitive ELISA)
condition-summary: immunopurified HLA, reference peptide IC50 50 nM, ratio ≤20 high affinity, 20–200 moderate affinity
Binarize relative binding ratio (IC50 of the test peptide divided by IC50 of the reference peptide) at 2; below is criterion met, at or above is criterion not met.

Threshold test, relative binding ratio (IC50 of the test peptide divided by IC50 of the reference peptide) < 2: GKHVAYIIRSHVKDHY [pTL5, Tear lipocalin peptide p82–97] criterion met

// next record GTWYLKAMTVDREFPE [pTL1, Tear lipocalin peptide p15–30] criterion not met

// next record KPDSVTPMILKAQKGGNL [pC2, Can f 1 peptide p31–48] criterion not met

// next record ALEDFEKAAGARGLST [pTL8, Tear lipocalin peptide p126–141] criterion not met

// next record PGKYTADGGKHVAYII [pTL4, Tear lipocalin peptide p74–89] criterion met

// next record HYILYCEGELHGRQIR [pC6, Can f 1 peptide p95–110] criterion not met

// next record EILELAQSETCSPGGQ [pC9, Can f 1 peptide p141–156] criterion not met
